Attribution: ChEMBL document CHEMBL1961873

- assayed.system: Serine/threonine-protein kinase Sgk2 (Homo sapiens) (UniProt Q9HBY8);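 note: each value is a mean percent inhibition of SGK2 from the GSK PKIS kinase screen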
- Sequence (whole entry): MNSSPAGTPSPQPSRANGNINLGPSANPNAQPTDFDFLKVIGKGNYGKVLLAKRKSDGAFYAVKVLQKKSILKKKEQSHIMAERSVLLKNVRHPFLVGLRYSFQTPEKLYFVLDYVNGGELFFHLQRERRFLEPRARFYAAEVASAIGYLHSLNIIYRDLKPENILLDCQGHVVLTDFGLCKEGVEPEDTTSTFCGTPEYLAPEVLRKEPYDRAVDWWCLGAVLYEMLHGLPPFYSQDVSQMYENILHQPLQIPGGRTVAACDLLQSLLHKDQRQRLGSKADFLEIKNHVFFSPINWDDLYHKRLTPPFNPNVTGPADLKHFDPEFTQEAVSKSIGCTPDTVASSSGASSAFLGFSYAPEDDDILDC
- stated.conditions: at 0.1 µM
parameter: inhibition (%)
Just the number in %, nothing appended.

*Q* Requested field: inhibition. Item: Fc1ccc(-c2nn3ccccc3c2-c2ccncc2)cc1
*A* 3.79

*Q* // inhibition lookup, key: CNC(=O)c1cncc(/C=C/c2ccccc2Cl)c1
*A* 3.22

*Q* Consider the compound shown here: O=C(Nc1n[nH]c2cc(-c3ccc(F)cc3)ccc12)C1CC1 What is its recorded inhibition?
*A* 3.3

*Q* What value of measured inhibition is listed for Nc1nc(-c2cccc(Cl)c2)c(-c2ccc3ncccc3n2)s1 ?
*A* 2.07

*Q* What value of inhibition has been reported for the following compound? NS(=O)(=O)c1ccc(Nc2ncc(-c3ccccc3)o2)cc1
*A* 2.15

*Q* Entry N#Cc1c(NC(=O)c2ccc(F)cc2)sc2c1CCCC2 has what inhibition?
*A* -3.36

*Q* Would you kindly share the measured inhibition for COc1ccc(-c2nn3ncccc3c2-c2ccnc(Nc3ccc4c(c3)OCCO4)n2)cc1 ?
*A* -0.02

*Q* Can you share its inhibition? I mean this compound: [O-][S+]1CCN(Cc2ccc(-c3ccc4ncnc(Nc5ccc(OCc6cccc(F)c6)c(Cl)c5)c4c3)o2)CC1
*A* -0.64

*Q* Suppose we examine the compound O=C(O[C@H]1CN[C@H](C#Cc2cc3ncnc(Nc4ccc(Cc5ccccc5)cc4)c3s2)C1)N1CCOCC1 ; what inhibition value has been reported?
*A* 0.65

*Q* Would you kindly share the measured inhibition for COc1cccc(-n2ncc3c(N/N=C/c4ccc(F)cc4)ncnc32)c1 ?
*A* 2.15

*Q* For the compound CS(=O)(=O)CCNCc1coc(-c2ccc3ncnc(Nc4ccc(OCc5ccccc5)cc4)c3c2)c1 , what inhibition is on record?
*A* -0.69

*Q* Need inhibition of COc1ccc2c(-c3ccnc(Nc4cccc(OC(F)(F)F)c4)n3)cnn2n1 , thanks.
*A* 6.82

###

For each of the molecules below, state its inhibition.
- assayed.system: Cyclin-dependent kinase 2 (Homo sapiens);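 note: mean inhibition of CDK2 in complex with cyclin E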
- stated.conditions: at 0.1 µM
Kindly provide the numeric value in % only, without the unit symbol.

*Q* Which inhibition is listed for CNC(=O)c1cc(-c2ccc(F)cc2)cc(-c2ccc(S(=O)(=O)N3CCCC3)cc2)c1N ?
*A* 2.41

*Q* I would be grateful if you could share the reported inhibition for Clc1ccc(-c2nn3ncccc3c2-c2ccnc(Nc3ccccc3)n2)cc1 .
*A* 1.3

*Q* Data request, read-out inhibition, for CC(C)(CO)CNC(=O)c1ccc2c(c1)/C(=N/Nc1ccc(S(N)(=O)=O)cc1)C(=O)N2
*A* 68.4

*Q* What value of inhibition has been reported for the following molecule? Cc1ccc2c(-c3ccnc(Nc4ccccc4)n3)c(-c3ccc(F)cc3)nn2n1
*A* 2.35

*Q* Request the reported inhibition associated with COC(=O)c1sc(-n2cnc3cc(OC)c(OC)cc32)cc1OCc1ccccc1C(F)(F)F
*A* 4.73

*Q* Sample COc1cccc(-n2ncc3c(N/N=C/c4ccc(F)cc4)ncnc32)c1 — what was its inhibition?
*A* 5.86

*Q* Param item = c1cc(-c2cnn3nc(N4CCOCC4)ccc23)nc(NC2CC2)n1 ; retrieve measured inhibition.
*A* 9.31
